# Tested on: Malme-3M
# Assay method text: NCI tumour cell line growth inhibition, 48 h
Active and inactive are the calls of the source. Cut-off read from the data, not from the text of the source: active = GI50 up to about 1.1 µM and inactive = higher.
Answer each item with its documented GI50.

Guide cases for GI50, answers given:
compound=CCCCn1cnc2c(SC)ncnc21 result="> 100 µM (inactive)"
compound=COCCCNC(=O)CC(=O)NCCCOC result="> 100 µM (inactive)"
compound="NC(=S)C1=C(N)Oc2c(c(=O)oc3ccccc23)C1c1ccc(Br)cc1 (stereo not drawn)" result="> 100 µM (inactive)"
compound=COc1ccc2c[n+](C)c3c4cc(OC)c(OC)cc4ccc3c2c1 result="7.6 µM (inactive)"

// for each compound below, give its GI50
1. Cc1c(Cl)cccc1NC(=O)/C(Cl)=C(\Cl)C(=O)O
2. O=C(CCCCCCCCC(=O)OCC1OC(n2cnc3c(=O)[nH]cnc32)C(O)C1O)OCC1OC(n2cnc3c(=O)[nH]cnc32)C(O)C1O (stereo not drawn)
3. O=[N+]([O-])C(=C/c1cccs1)/C(=C\c1cccs1)[N+](=O)[O-]
4. C=C1CC(Cn2cc(Br)c(=O)[nH]c2=O)(c2ccc(Br)cc2)OC1=O (stereo not drawn)
5. Clc1ccc(/C=N/c2ccc3c(c2)Cc2ccccc2-3)c(Cl)c1

Response:
1: 17.8 µM (inactive); 2: > 100 µM (inactive); 3: 1.03 µM (active); 4: 1.87 µM (inactive); 5: > 100 µM (inactive)

// for each compound below, give its GI50
1. COc1cc2cccc(/N=C\c3ccccc3Cl)c2cc1OC
2. CC(=O)Oc1ccc2c3c1[C@H]1O[C@H]1c1cccc(c1-3)[C@@H]1O[C@H]21
3. O=C1/C(=C2\Sc3c(ccc(Cl)c3Cl)C2=O)Sc2c1ccc(Cl)c2Cl
4. CCOC(=O)c1[nH]c2cc(OC)c(OC)cc2c1CN(C)C
5. CSC(C1c2ccccc2N(c2ccc(C)cc2)C2=NC(=O)N(C)C(=O)C21Cl)S(=O)(=O)c1ccc(C)cc1 (stereo not drawn)

Response:
1. > 100 µM (inactive)
2. 2.72 µM (inactive)
3. > 100 µM (inactive)
4. > 100 µM (inactive)
5. 17.2 µM (inactive)

// for each compound below, give its GI50
1. COc1cc(/C=C2/SC(c3ccccc3)N(c3ccccc3Cl)C2=O)cc(OC)c1OC (stereo not drawn)
2. C[n+]1ccc(Nc2ccc(NC(=O)c3ccc(Nc4cc[n+](C)c5ccc([N+](=O)[O-])cc45)cc3[N+](=O)[O-])cc2)cc1
3. CN(C)/N=C1\C=C2CC[C@H](O[Si](C)(C)C(C)(C)C)[C@@]2(C)CC1
4. CCCC(=O)Nc1cc(/C=C/C(=O)N2C[C@@H]3C[C@]34C2=CC(=O)c2[nH]cc(C)c24)n(C)c1
5. CCCC(CCN)(CCN)[N+](=O)[O-]
6. CCOC(=O)C1(C#N)C(=O)c2cc[n+](CC[n+]3ccc4c(c3)C(=O)C(C#N)(C(=O)OCC)C4=O)cc2C1=O (stereo not drawn)
7. N/N=C(\CCN1CCCC1)CC(c1ccccc1)c1c(O)c2ccccc2oc1=O (stereo not drawn)

Response:
1: 23.4 µM (inactive); 2: 19.5 µM (inactive); 3: 15.6 µM (inactive); 4: 0.0746 µM (active); 5: > 100 µM (inactive); 6: 60.4 µM (inactive); 7: > 100 µM (inactive)
